pKi: −log10 of the molar value.
Sodium-dependent serotonin transporter (Homo sapiens) measurements of pKi, listed per entry.
Sequence (P31645 whole entry): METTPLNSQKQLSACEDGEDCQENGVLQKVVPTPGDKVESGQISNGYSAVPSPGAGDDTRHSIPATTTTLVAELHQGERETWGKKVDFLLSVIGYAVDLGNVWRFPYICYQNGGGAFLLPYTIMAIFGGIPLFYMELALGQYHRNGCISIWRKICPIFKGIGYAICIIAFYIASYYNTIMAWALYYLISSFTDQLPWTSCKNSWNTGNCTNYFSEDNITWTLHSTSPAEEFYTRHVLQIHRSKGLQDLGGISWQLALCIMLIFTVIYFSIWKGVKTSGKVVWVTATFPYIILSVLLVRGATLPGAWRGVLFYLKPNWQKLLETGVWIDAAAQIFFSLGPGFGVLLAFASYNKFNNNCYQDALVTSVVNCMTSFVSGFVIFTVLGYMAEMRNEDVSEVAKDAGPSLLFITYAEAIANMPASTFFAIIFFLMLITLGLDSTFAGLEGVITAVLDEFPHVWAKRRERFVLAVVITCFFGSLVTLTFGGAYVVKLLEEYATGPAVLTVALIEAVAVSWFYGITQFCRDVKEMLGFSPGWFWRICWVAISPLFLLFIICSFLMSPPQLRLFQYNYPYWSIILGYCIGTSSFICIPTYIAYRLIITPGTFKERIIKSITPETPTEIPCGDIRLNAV
MEASUREMENT KIND: pKi

[
  {
    "COMPOUND": "COCCOc1cc(CC2CCN(CCc3ccc4c(c3)C(=O)CCO4)CC2)ccc1C",
    "MEASUREMENT KIND": "pKi",
    "QUANTITATIVE READOUT": 8.28
  },
  {
    "COMPOUND": "COCCOc1cc(CC2CCN(CCc3ccc4c(c3)C(=O)CCO4)CC2)ccc1Cl",
    "MEASUREMENT KIND": "pKi",
    "QUANTITATIVE READOUT": 8.47
  },
  {
    "COMPOUND": "COCCOc1cccc(CC2CCN(CCc3ccc4c(c3)C(=O)CCO4)CC2)c1",
    "MEASUREMENT KIND": "pKi",
    "QUANTITATIVE READOUT": 6.69
  },
  {
    "COMPOUND": "COCCOc1cc(CC2CCN(CCc3ccc4c(c3)OCCC4=O)CC2)ccc1Br",
    "MEASUREMENT KIND": "pKi",
    "QUANTITATIVE READOUT": 8.85
  },
  {
    "COMPOUND": "COCCOc1cc(CC2CCN(CCc3ccc4c(c3)C(O)CCO4)CC2)ccc1Br (centres undefined)",
    "MEASUREMENT KIND": "pKi",
    "QUANTITATIVE READOUT": 8.07
  }
]

(a) COCCOc1cc(CC2CCN(CCc3cc4c(cc3Cl)OCCO4)CC2)ccc1Br
(b) CCc1ccc(CC2CCN(CCc3ccc4c(c3)C(=O)CCO4)CC2)cc1OCCOC
(c) COCCOc1cc(CC2CCN(CCc3ccc4c(c3)C(=O)CCCO4)CC2)ccc1Br
Ascending by pKi, please: list the compounds accordingly. Reply with the labels, ordered as the question asks.
b, a, c
(b: 8.01, a: 8.26, c: 8.93)
